Biological target: RNA-binding protein pos-1 (Caenorhabditis elegans)
Sequence (G5EF15 whole entry): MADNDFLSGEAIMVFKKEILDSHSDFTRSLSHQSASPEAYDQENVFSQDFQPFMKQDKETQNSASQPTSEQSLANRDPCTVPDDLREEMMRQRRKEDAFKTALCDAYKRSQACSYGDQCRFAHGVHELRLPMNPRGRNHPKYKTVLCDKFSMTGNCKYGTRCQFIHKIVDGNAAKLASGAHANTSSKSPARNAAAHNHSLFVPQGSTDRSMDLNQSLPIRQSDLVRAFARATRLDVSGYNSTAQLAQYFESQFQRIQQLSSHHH
Experiment: disruptors of C. elegans POS-1 RNA interaction – biochemical, fluorescence polarization, dose response (AID 1964);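 also: purified POS-1 fused to maltose binding protein made in E. coli; potency of compounds blocking POS-1 binding to fluorescent RNA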
Activity calls are given as the source filed them.
Kindly state EC50 for each of the entries shown.

# EC50 lookup, item "CCCCc1ccc(NC(=O)CSC2=NN3CCCC(=O)N=C3S2)cc1"
> 300 µM (not active)

So what does the record say about EC50 for O=C(O)CCC(=O)N1N=C(c2cccs2)CC1c1cn(-c2ccccc2)nc1-c1ccccc1 (centres undefined) ?
46.5 µM (active)

Record request: EC50 value, item "NC(=O)c1ccccc1N/C=C/C(=O)c1ccc(F)cc1"
> 300 µM (not active)

Name the recorded EC50 for "CN1C(=O)c2ccccc2NC(=O)[C@]12O[C@@H]2c1cccc(O)c1" .
4.13 µM (active)

Which EC50 is reported for this molecule? CC1=C(C(=O)OCc2ccccc2)C(c2ccccc2[N+](=O)[O-])NC(=O)N1C (centres undefined)
> 300 µM (not active)

Recorded EC50 of "N=C(N)NS(=O)(=O)c1ccc(NC(=S)NC(=O)/C=C/c2cccs2)cc1" , please.
> 300 µM (not active)

Which EC50 value belongs to Clc1ccc(C2=CC(c3ccco3)n3ncnc3N2)cc1 (centres undefined) ?
24.7 µM (inconclusive)

# query: EC50 of entry "NC(=O)C1(N2CCCCC2)CCN(Cc2nc(-c3cccs3)no2)CC1"
> 300 µM (not active)

Name the recorded EC50 for "O=C(O)c1ccccc1-c1ccc(C=C2C(=O)N(c3ccccc3)C(=S)N(c3ccccc3)C2=O)o1" .
> 300 µM (not active)

====

Would you kindly list IC50 for each of these molecules?
target: DNA dC->dU-editing enzyme APOBEC-3G (Homo sapiens, UniProt Q9HC16); format: functional;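 also: Dose-response counterscreen measuring inhibition of APOBEC3G DNA deaminase activity, run while confirming APOBEC3A inhibitors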
Sequence (Q9HC16 whole entry): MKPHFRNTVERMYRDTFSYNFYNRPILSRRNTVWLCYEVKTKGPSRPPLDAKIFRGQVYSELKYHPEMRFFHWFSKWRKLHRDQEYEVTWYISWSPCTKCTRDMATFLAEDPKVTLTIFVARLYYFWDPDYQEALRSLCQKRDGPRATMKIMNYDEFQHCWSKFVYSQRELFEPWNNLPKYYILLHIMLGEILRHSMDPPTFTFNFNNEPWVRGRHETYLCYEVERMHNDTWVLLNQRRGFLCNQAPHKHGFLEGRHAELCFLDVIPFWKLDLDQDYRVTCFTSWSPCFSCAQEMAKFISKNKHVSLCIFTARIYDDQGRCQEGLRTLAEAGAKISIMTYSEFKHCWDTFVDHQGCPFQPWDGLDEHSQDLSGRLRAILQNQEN
The source made the active and inactive calls.

Give its IC50 value. Item: "CCN1C(NCCOC)=N[C@@H](c2cccc(F)c2)C(C(=O)OC)=C1C"
5.2 µM (active)

I have this molecule here, "COc1ccc(NC(=O)c2cc(-c3ccco3)nc3ccccc23)cn1" , and I need its recorded IC50.
22.5 µM (active)

Which measured IC50 value corresponds to "CN(Cc1ccc(Cl)c(Cl)c1)C(=O)C1=CC=CN2CCS(=O)(=O)N=C12" ?
12.2 µM (active)

Looking for the measured IC50 of "COc1cccc(CNC(=O)c2cccc(S(=O)(=O)N3CCN(C)CC3)c2)c1" , can you help?
8.69 µM (active)

====

target: Dual specificity tyrosine-phosphorylation-regulated kinase 1A (Rattus norvegicus); assay type: biochemical, Homo sapiens
Activity calls are given as the source filed them.
What AC50 was measured for each of the following?

What does the data say about its AC50? Entry: CC1Cc2ccccc2N1c1ncnc2nc[nH]c12 (centres undefined)
0.811 µM (active)

Data request, read-out AC50, for "Cc1ccccc1NC1=C/C(=N\S(=O)(=O)c2ccc(C(=O)O)cc2)c2ccccc2C1=O"
4.11 µM (active)

Please give the measured AC50 for this molecule: "COc1cccc(Nc2ncnc3ccccc23)c1"
4.91 µM (active)

Given "Nc1nc(N)nc(-c2ccc(Cl)cc2)n1" , state its recorded AC50.
10.6 µM (active)

====

molecular target: Heat shock factor protein 1 (Mus musculus); assay: enhancement of HSF1-driven luciferase signal – cell-based, NIH3T3, luminescence, dose retest, confirmation (AID 435004); type: functional;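 also: stress induced by proteasome inhibitor MG132 added 30 min after compound; luciferase reporter driven by HSF1 response element in NIH3T3 cells; actives raise luminescence as potentiators of the MG132 stress response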
Sequence (P38532 whole entry): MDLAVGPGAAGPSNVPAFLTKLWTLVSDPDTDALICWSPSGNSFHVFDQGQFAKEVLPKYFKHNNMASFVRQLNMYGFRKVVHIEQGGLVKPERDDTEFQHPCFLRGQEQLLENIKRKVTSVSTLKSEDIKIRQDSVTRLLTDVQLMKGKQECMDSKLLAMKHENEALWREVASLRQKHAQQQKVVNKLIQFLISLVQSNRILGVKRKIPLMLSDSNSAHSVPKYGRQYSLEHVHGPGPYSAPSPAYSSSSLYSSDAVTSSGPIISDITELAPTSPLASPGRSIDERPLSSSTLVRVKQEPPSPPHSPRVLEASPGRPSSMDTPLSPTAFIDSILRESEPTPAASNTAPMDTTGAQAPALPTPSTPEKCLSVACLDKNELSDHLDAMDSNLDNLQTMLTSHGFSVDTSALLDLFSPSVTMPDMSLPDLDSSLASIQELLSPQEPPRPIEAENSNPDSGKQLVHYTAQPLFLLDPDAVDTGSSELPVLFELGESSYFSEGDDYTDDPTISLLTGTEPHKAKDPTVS
Active and inactive are the calls of the source.
Result category, one only: y = active, n = inactive

Recorded test outcome, item "CS(=O)(=O)c1ccc(Cl)c(C(=O)NCC2CCCCC2)c1"
n

So what was the verdict on COc1ccccc1N1CCN(C(=O)C(CC(C)C)NC(=O)C2CCCCC2)CC1 (centres undefined) in this test?
n

Any idea what this test logged for "COc1ccc(S(=O)(=O)Nc2cc3c4c(oc3c3ccccc23)CCCC4=O)cc1" ?
n

Dear all, I need the recorded test outcome for "O=S(=O)(c1ccc(Oc2ccccc2)cc1)N1CCOCC1" , thank you.
n

Recorded test outcome, item "COc1ccc(OC)c(NC(=O)CNC(c2ccccc2)c2ccccc2)c1"
n

Hi, do you know how CCCCCNC(=O)C1CCC(Cn2c(=S)[nH]c3ccccc3c2=O)CC1 (centres undefined) came out in this test?
n

Which outcome was entered for the compound "Oc1c(N=Nc2ccccn2)ccc2ccccc12" in this test?
y

Query: recorded result category for "COC(=O)[C@@H]1C[C@]2(OC(=O)c3ccccc3)C=CC(=O)C[C@@H]2N1C(=O)OCc1ccccc1" in this test
y

Could you please tell me the result logged for "Cc1ccc(CNC(=O)Cn2ccc3ccccc3c2=O)o1" in this assay?
n

====

Record form. Attribute: AC50. Fill in for each entry.
biological target: Paired box protein Pax-8 (Homo sapiens); assay: PAX8 transcriptional activity inhibition in RMG-I – RMG-I cells, luciferase, cherry-pick, dose response (AID 687027); type: functional, cell-based;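 also: luciferase reporter driven by Pax8 target thyroperoxidase promoter measured by SteadyGlo luminescence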
Sequence (Q06710 whole entry): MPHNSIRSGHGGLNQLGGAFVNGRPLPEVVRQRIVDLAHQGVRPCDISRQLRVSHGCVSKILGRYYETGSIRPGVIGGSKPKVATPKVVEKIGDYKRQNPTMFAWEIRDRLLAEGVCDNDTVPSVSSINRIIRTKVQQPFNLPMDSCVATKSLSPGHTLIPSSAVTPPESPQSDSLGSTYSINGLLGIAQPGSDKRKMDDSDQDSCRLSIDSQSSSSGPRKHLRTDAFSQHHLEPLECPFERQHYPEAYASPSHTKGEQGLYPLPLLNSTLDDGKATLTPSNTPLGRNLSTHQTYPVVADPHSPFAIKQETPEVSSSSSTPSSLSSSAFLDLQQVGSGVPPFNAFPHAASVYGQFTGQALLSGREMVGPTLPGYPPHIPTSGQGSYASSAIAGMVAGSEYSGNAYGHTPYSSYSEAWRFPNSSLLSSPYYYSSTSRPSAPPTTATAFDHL
Active and inactive are the calls of the source.

Reported AC50, molecule CC1=CC(C)CC(C)OC(=O)CC(c2ccc(O)cc2)NC(=O)C(Cc2c(Br)[nH]c3ccccc23)N(C)C(=O)C(C)NC(=O)C(C)C1 (stereo not given) : ____
< 260 nM (active)

AC50 for "COc1ccccc1C#Cc1ccc2c(c1)O[C@H](CN(C)Cc1ccncc1)[C@@H](C)CN([C@@H](C)CO)S2(=O)=O" ?
10900 nM (active)

# lookup: AC50 of "C=CC(=O)/N=c1\sc2ccccc2n1-c1ccccc1"
1600 nM (active)

# input molecule: "Oc1ccc2ccccc2c1N=Nc1nccs1" ; wanted: its AC50
2920 nM (active)

Which AC50 is reported for this molecule? "CCCC(=O)NC1=C(Cl)C(=O)c2ccccc2C1=O"
2540 nM (active)

====

Target: UniProt:O75030
Sequence (O75030 whole entry): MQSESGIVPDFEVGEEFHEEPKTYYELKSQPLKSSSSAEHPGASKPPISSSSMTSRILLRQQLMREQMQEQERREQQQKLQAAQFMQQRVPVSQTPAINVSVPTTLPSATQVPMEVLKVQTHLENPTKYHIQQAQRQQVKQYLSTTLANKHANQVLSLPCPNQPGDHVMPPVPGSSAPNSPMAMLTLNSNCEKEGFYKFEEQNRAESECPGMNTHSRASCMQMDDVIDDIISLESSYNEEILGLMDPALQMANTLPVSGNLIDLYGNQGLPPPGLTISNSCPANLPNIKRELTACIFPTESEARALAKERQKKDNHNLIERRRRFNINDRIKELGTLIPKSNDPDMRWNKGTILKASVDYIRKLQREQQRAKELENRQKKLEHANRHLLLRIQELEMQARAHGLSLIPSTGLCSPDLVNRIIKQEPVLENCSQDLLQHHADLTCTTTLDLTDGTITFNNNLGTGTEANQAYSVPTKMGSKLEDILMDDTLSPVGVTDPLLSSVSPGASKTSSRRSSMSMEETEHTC
Test: reducers of TRPM1 reporter luminescence, concentration series – cell-based, SK-MEL-5, cherry-picked, set 3, MITF inhibitor project, dose response (AID 493073);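 also: SK-MEL-5 melanoma cells with luciferase driven by the MITF target TRPM1 promoter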
Format: functional
Activity calls are given as the source filed them.
readout: AC50

// returns reported AC50 for input "COC(=O)[C@@H]1C[C@]2(OC(=O)c3ccccc3)C=CC(=O)C[C@@H]2N1C(=O)OCc1ccccc1"
14 µM (active)

Which AC50 is reported for this compound? "CC(C)CN=C(NS(=O)(=O)c1ccccc1)C(Cl)(Cl)Cl"
11.1 µM (active)

For "CCN(CC)S(=O)(=O)c1cccc(C(=O)N/N=C(\C)c2ccc(O)cc2O)c1" , what is its reported AC50?
3.74 µM (active)

I have this compound here, "Cc1cc(C)n(CCC(=O)N/N=C/c2c(O)ccc3ccccc23)n1" , and I need its recorded AC50.
45.1 µM (active)

What value of AC50 has been recorded for this entry: "COc1ccc(/C(O)=C\C=N\c2ccccn2)cc1"
3.72 µM (active)

Given the compound "CCCCn1c(=N)n(CC(=O)c2ccc(Br)s2)c2ccccc21" , what is its reported AC50?
7.45 µM (active)

====

Assign IC50 to each entry below.
biological target: Polyadenylate-binding protein 1 (Homo sapiens); assay: MLLE domain peptide-binding blockers, IC50 – biochemical, fluorescence polarization, FITC-PAM2 peptide, dose response (AID 602259); type: functional; conditions: read-out: IC50_Mean
Sequence (P11940 whole entry, the tested form may be a part): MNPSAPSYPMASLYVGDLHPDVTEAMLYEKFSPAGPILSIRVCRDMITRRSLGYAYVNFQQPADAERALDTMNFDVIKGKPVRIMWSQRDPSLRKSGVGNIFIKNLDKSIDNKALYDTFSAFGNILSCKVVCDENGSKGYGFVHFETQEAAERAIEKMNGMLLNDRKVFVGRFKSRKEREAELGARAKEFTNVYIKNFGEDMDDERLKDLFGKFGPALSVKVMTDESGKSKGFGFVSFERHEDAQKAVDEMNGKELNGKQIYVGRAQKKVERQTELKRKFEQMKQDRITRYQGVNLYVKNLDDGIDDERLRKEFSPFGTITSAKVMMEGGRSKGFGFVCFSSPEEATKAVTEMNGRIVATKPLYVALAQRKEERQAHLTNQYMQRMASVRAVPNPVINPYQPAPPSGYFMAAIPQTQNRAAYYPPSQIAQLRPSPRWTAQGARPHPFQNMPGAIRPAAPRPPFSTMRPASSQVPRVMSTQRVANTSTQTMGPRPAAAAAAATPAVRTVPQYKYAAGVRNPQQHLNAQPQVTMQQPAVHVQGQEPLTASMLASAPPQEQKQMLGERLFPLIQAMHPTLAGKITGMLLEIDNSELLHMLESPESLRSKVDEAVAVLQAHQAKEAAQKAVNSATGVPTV
Activity calls are given as the source filed them.

Item "COc1ccc(NC(=O)CSc2ccc([N+](=O)[O-])cc2)cc1S(=O)(=O)N1CCOCC1" with Polyadenylate-binding protein 1 (Homo sapiens) - IC50?
> 66 µM (inactive)

Enter reported IC50 observed with Polyadenylate-binding protein 1 (Homo sapiens) for "CC(=O)Nc1ccc(SC[C@H](C)CN2CC[C@H](C(C)(C)C)CCC2=O)cc1"
> 66 µM (inactive)

Could you share what IC50 was measured for "Cc1ccc[n+](-c2nc([O-])sc2C=NNc2ccc([N+](=O)[O-])cc2)c1" , tested on Polyadenylate-binding protein 1 (Homo sapiens)?
33.3 µM (inactive)

Value wanted: IC50 (Polyadenylate-binding protein 1 (Homo sapiens)) of entry "Cc1onc(-c2c(F)cccc2Cl)c1C(=O)NC(=S)Nc1c(C)n(C)n(-c2ccccc2)c1=O"
> 66 µM (inactive)

Write down the reported IC50 of "CCCC(=O)NC1=C(Cl)C(=O)c2ccccc2C1=O" , test system: Polyadenylate-binding protein 1 (Homo sapiens).
> 66 µM (inactive)

Form field: IC50 recorded for "COc1ccc(N/N=C2/CCCCC2=O)cc1" with Polyadenylate-binding protein 1 (Homo sapiens) (enter value)
> 66 µM (inactive)

Which IC50 is reported with Polyadenylate-binding protein 1 (Homo sapiens) for this entry: "O=C1c2sccc2-c2cccc3cccc1c23" ?
25.5 µM (inactive)

Give IC50 (Polyadenylate-binding protein 1 (Homo sapiens)) of the following compound: CCOC(=O)c1c(NC(=O)C2(C)Cc3ccccc3C(=O)O2)sc2c1CCCC2 (stereo not drawn)
> 66 µM (inactive)

Lab note: need IC50 for "CCC(=O)N1CCN(c2ccc(NC(=S)NC(=O)c3ccc(OC)c([N+](=O)[O-])c3)cc2)CC1" on Polyadenylate-binding protein 1 (Homo sapiens), anyone have it?
> 66 µM (inactive)

Which measured IC50 belongs to "Oc1ccc2ccccc2c1N=Nc1nccs1" , tested on Polyadenylate-binding protein 1 (Homo sapiens)?
> 66 µM (inactive)

Which IC50 is reported with Polyadenylate-binding protein 1 (Homo sapiens) for this entry: "S=C(c1ccc(N2CCOCC2)cc1)N1CCOCC1" ?
> 66 µM (inactive)

Query the reported IC50 for Polyadenylate-binding protein 1 (Homo sapiens); item: "O=C(CSC1=NC2(CCCCC2)N=C1c1ccccc1)Nc1ccc2c(c1)OCCO2"
> 66 µM (inactive)

So what IC50 did Cc1nc2ccccn2c1C(=O)C1=C(O)C(=O)N(CCN(C)C)C1c1ccco1 (stereo not drawn) get with Polyadenylate-binding protein 1 (Homo sapiens)?
> 66 µM (inactive)

All figures here come from ChEMBL document CHEMBL1201862.
